Listed here are compounds together with their documented GI50.
# System: FaDu
# runDescription: Growth inhibition against human pharynx FADU cell line
# Type: functional
Your answer should be a plain number; it is taken to be in µg/mL.

Some compounds with known GI50 results, for comparison:
COc1ccc(/C=C\c2cc(OC)c(OC)c(OC)c2)cc1OCCCO    0.63
COc1ccc(/C=C\c2cc(OC)c(O)c(OC)c2)cc1O    0.23

Turning now to a further record.
Just so you know, measured GI50 for "COc1ccc(/C=C\c2cc(OC)c(OC)c(OC)c2)cc1OCCN(C)C.Cl" came out at 0.47
